Biological target: UniProt:O46352
Sequence (O46352 26-108): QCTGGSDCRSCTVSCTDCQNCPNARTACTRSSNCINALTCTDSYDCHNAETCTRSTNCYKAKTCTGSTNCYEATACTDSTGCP
ENDPOINT: pKd
When answering, recall that pKd equals minus log10 of the concentration in mol/L, and write that number alone.

Asked: GET /values?readout=pKd&item= NC(=O)C1=CN([C@@H]2O[C@H](COP(=O)(O)OP(=O)(O)OC[C@H]3O[C@@H](n4cnc5c(N)ncnc54)[C@H](O)[C@@H]3O)[C@@H](O)[C@H]2O)C=CC1 [NADH]
Given back: 6.55

Each recorded value in this set is attributed to patent US10426159B1.
